Test system: TRPC4 beta (transient receptor potential cation channel C4), mouse
Assay: TRPC4 cation channel opening, retest – cell-based, Fluo4 calcium, HEK293 TRPC4beta/mu-opioid, duplicates, 10 µM, confirmation (AID 2426)
Conditions: Fluo4 calcium fluorescence, at 10 µM
Active and inactive are the calls of the source.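 How the source made its calls: active means fluorescence ratio normalized to control raised more than 50% in primary screen plus both repeat runs; inactive means the rest.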
Classes used: Yes (active), No (inactive)

[
  {
    "Compound": "CCSc1nnc([C@H](Cc2c[nH]c3ccccc23)NC(=O)OC(C)(C)C)o1",
    "Group Label": "No"
  },
  {
    "Compound": "COc1ccc(-n2c3c(cc(C(=O)NCc4ccco4)c2=O)C(=O)CC(C)(C)C3)cc1",
    "Group Label": "No"
  },
  {
    "Compound": "COc1ccc(C(=O)NNC(=O)CN2CCC(n3nnc4cc(C)ccc43)CC2)cc1",
    "Group Label": "No"
  },
  {
    "Compound": "CC(C)(C)C(=O)NCCCc1nc2ccccc2n1CCCOc1ccc(Cl)cc1",
    "Group Label": "No"
  },
  {
    "Compound": "O=C(O)c1ccc(Cl)cc1Nc1nc2cc(Cl)ccc2o1",
    "Group Label": "No"
  },
  {
    "Compound": "CCOc1ccc2[nH]c3c(N4CCN(c5ccccn5)CC4)ncnc3c2c1",
    "Group Label": "No"
  },
  {
    "Compound": "CN(C)c1ccc(C(CNC(=O)Cc2cccc3ccccc23)N(C)C)cc1 (stereo unspecified)",
    "Group Label": "Yes"
  },
  {
    "Compound": "COc1ccc(-c2n[nH]c(C)c2-c2ccccc2OC)c(O)c1",
    "Group Label": "No"
  },
  {
    "Compound": "CCOc1ccc(Nc2nc(Cc3nnc(SCC(=O)c4ccc(C)cc4)o3)cs2)cc1",
    "Group Label": "No"
  },
  {
    "Compound": "CCCc1noc2c1/C(=N\\O)CC(CC(C)SCC)C2 (stereo unspecified)",
    "Group Label": "No"
  },
  {
    "Compound": "CCN1C(=O)/C(=C\\N2CCCc3ccccc32)SC1=S",
    "Group Label": "No"
  }
]

----------
Tested on: transient receptor potential cation channel C4 beta (TRPC4), mouse
Assay: TRPC4 cation channel opening, second retest – cell-based, second round, Fluo4, HEK293 TRPC4beta/mu-opioid, 1 µM, confirmation (AID 2461)
Conditions: Fluo4 calcium fluorescence, at 1 µM
The source made the active and inactive calls.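 Rule for the calls: active = primary screen active and over 50% activation in each of two duplicate runs; inactive = the rest.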
Classes used: active, inactive

[
  {
    "Compound": "O=C1S/C(=C\\c2ccc(N3CCOCC3)o2)C(=O)N1Cc1c(F)cccc1Cl",
    "Group Label": "inactive"
  },
  {
    "Compound": "Cn1cc(CNCC2CCCO2)c(-c2ccc(Oc3ccccc3)cc2)n1 (stereo unspecified)",
    "Group Label": "inactive"
  },
  {
    "Compound": "Cc1c(C(=O)NCC(c2ccco2)N(C)C)oc2c(Cl)cccc12 (stereo unspecified)",
    "Group Label": "inactive"
  },
  {
    "Compound": "O=C(NCCNC1CCC(c2ccccc2)CC1)c1cccs1 (stereo unspecified)",
    "Group Label": "active"
  },
  {
    "Compound": "N=c1c2c3c(sc2ncn1Cc1ccccc1)CCCC3",
    "Group Label": "inactive"
  },
  {
    "Compound": "CCN1CCN(c2ccc(S(=O)(=O)N3CCCCC3)cc2NC(=O)c2cccc(Cl)c2)CC1",
    "Group Label": "inactive"
  }
]

----------
Molecular target: Short transient receptor potential channel 6 (Mus musculus) (UniProt Q61143)
Sequence (Q61143 whole entry, looked up): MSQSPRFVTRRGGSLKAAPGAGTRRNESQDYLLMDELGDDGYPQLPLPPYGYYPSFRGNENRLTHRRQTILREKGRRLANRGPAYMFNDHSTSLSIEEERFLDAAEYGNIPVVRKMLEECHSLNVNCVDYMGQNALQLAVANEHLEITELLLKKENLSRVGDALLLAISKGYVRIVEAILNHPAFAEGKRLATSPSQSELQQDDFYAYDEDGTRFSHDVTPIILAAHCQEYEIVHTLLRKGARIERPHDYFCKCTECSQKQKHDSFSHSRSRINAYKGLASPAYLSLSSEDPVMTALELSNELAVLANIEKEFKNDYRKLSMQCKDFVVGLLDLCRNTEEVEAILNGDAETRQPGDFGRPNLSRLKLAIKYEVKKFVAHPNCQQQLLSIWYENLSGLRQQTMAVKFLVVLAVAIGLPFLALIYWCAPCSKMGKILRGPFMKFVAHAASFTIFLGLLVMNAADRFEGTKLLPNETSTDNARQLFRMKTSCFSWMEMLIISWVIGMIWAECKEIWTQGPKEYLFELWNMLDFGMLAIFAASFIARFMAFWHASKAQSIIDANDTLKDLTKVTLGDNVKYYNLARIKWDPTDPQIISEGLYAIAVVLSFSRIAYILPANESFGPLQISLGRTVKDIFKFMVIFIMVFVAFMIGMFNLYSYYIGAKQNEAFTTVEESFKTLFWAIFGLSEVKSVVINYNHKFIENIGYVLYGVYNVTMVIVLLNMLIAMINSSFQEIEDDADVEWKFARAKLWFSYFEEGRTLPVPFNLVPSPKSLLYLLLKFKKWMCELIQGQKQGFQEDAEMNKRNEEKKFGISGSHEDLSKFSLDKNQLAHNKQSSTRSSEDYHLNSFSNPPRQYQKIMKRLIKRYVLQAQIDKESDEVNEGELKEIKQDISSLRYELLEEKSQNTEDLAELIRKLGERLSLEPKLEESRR
Experiment: TRPC6 blockade by TRPC4 inhibitor hits – cell-based, HEK293, membrane potential dye, duplicate, selectivity assay for TRPC4 inhibitor project, confirmation (AID 434948)
Conditions: HEK293 TRPC6, membrane potential dye fluorescence, at 10 µM, stimulated with maximal-effect acetylcholine
The source made the active and inactive calls.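 Rule for the calls: active = active in primary screen and both duplicates, each dropping signal beyond three positive-control SD with fluorescence still positive; inactive = the rest.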
Labels: active, inactive

[
  {
    "Compound": "CCN1CCCC1CNS(=O)(=O)c1c(C)cc(C)cc1C (stereo not drawn)",
    "System Tested": "Short transient receptor potential channel 6 (Mus musculus) (UniProt Q61143)",
    "Group Label": "inactive"
  },
  {
    "Compound": "CCC1(C(=O)c2ccccc2)C(c2ccc([N+](=O)[O-])cc2)C1(C(=O)OC)C(=O)OC (stereo not drawn)",
    "System Tested": "Short transient receptor potential channel 6 (Mus musculus) (UniProt Q61143)",
    "Group Label": "inactive"
  },
  {
    "Compound": "O=C(O)c1cc(NN=C2c3ccccc3-c3ccccc32)ccc1Cl",
    "System Tested": "Short transient receptor potential channel 6 (Mus musculus) (UniProt Q61143)",
    "Group Label": "active"
  },
  {
    "Compound": "CN(CC(=O)Nc1sc2c(c1C#N)CCCCC2)Cc1nc2ccccc2c(=O)[nH]1",
    "System Tested": "Short transient receptor potential channel 6 (Mus musculus) (UniProt Q61143)",
    "Group Label": "inactive"
  },
  {
    "Compound": "CCOC(=O)c1cnc2ccc(Cl)cc2c1NCCN(C)C",
    "System Tested": "Short transient receptor potential channel 6 (Mus musculus) (UniProt Q61143)",
    "Group Label": "inactive"
  },
  {
    "Compound": "Cc1oc(-c2ccccc2Cl)nc1CS(=O)CC(=O)NCCCN1CC(C)CC(C)C1 (stereo not drawn)",
    "System Tested": "Short transient receptor potential channel 6 (Mus musculus) (UniProt Q61143)",
    "Group Label": "inactive"
  },
  {
    "Compound": "CCOC(=O)C1(Cc2cccc(OC)c2)CCN(Cc2cccc(O)c2)CC1",
    "System Tested": "Short transient receptor potential channel 6 (Mus musculus) (UniProt Q61143)",
    "Group Label": "inactive"
  },
  {
    "Compound": "Cc1ccc(/C=C2\\SC(=S)N(C(Cc3ccccc3)C(=O)O)C2=O)cc1 (stereo not drawn)",
    "System Tested": "Short transient receptor potential channel 6 (Mus musculus) (UniProt Q61143)",
    "Group Label": "inactive"
  },
  {
    "Compound": "CCCCN1C(=O)C(=O)N(CC(=O)Nc2cc(OCC)c(N3CCOCC3)cc2OCC)C1=O",
    "System Tested": "Short transient receptor potential channel 6 (Mus musculus) (UniProt Q61143)",
    "Group Label": "inactive"
  },
  {
    "Compound": "CCSc1ccccc1C(=O)NCCc1ccccc1",
    "System Tested": "Short transient receptor potential channel 6 (Mus musculus) (UniProt Q61143)",
    "Group Label": "inactive"
  },
  {
    "Compound": "Cn1c2ccccc2c(=O)c2c(=O)n(-c3ccccc3)c(-c3ccc(C(C)(C)C)cc3)nc21",
    "System Tested": "Short transient receptor potential channel 6 (Mus musculus) (UniProt Q61143)",
    "Group Label": "inactive"
  },
  {
    "Compound": "CN1CCN(c2ccc(NC(=O)COc3cccc4ccccc34)cc2)CC1",
    "System Tested": "Short transient receptor potential channel 6 (Mus musculus) (UniProt Q61143)",
    "Group Label": "inactive"
  },
  {
    "Compound": "Brc1ccc(CN2C3=NCCCN3c3ccccc32)cc1",
    "System Tested": "Short transient receptor potential channel 6 (Mus musculus) (UniProt Q61143)",
    "Group Label": "inactive"
  },
  {
    "Compound": "CC12CN3CC(C)(CN(C1)C3c1ccc(Cl)cc1Cl)C2O (stereo not drawn)",
    "System Tested": "Short transient receptor potential channel 6 (Mus musculus) (UniProt Q61143)",
    "Group Label": "inactive"
  },
  {
    "Compound": "CN(C)CCCCOc1cccc(Br)c1",
    "System Tested": "Short transient receptor potential channel 6 (Mus musculus) (UniProt Q61143)",
    "Group Label": "inactive"
  },
  {
    "Compound": "Cc1ccc(NS(=O)(=O)c2ccc(NS(=O)(=O)c3cccs3)cc2)cc1",
    "System Tested": "Short transient receptor potential channel 6 (Mus musculus) (UniProt Q61143)",
    "Group Label": "inactive"
  },
  {
    "Compound": "COc1ccc([N+](=O)[O-])cc1NCc1ccco1",
    "System Tested": "Short transient receptor potential channel 6 (Mus musculus) (UniProt Q61143)",
    "Group Label": "inactive"
  },
  {
    "Compound": "CN1CCCC(OC(=O)c2cc(Br)ccc2Cl)C1 (stereo not drawn)",
    "System Tested": "Short transient receptor potential channel 6 (Mus musculus) (UniProt Q61143)",
    "Group Label": "inactive"
  },
  {
    "Compound": "O=C(COc1ccccc1-c1ccccc1)NCc1ccco1",
    "System Tested": "Short transient receptor potential channel 6 (Mus musculus) (UniProt Q61143)",
    "Group Label": "inactive"
  },
  {
    "Compound": "O=C(CSCc1cccc(Cl)c1)N1CCN(Cc2ccc3c(c2)OCO3)CC1",
    "System Tested": "Short transient receptor potential channel 6 (Mus musculus) (UniProt Q61143)",
    "Group Label": "inactive"
  },
  {
    "Compound": "CCC(C(=O)Nc1ccccc1OC)n1c(C(=O)OC)cc2ccsc21 (stereo not drawn)",
    "System Tested": "Short transient receptor potential channel 6 (Mus musculus) (UniProt Q61143)",
    "Group Label": "inactive"
  },
  {
    "Compound": "CCC1C=C(c2ccccc2)C=CN=C1N(CC)CC (stereo not drawn)",
    "System Tested": "Short transient receptor potential channel 6 (Mus musculus) (UniProt Q61143)",
    "Group Label": "inactive"
  },
  {
    "Compound": "CNc1oc(-c2ccccc2Cl)nc1P(=O)(c1ccccc1)c1ccccc1",
    "System Tested": "Short transient receptor potential channel 6 (Mus musculus) (UniProt Q61143)",
    "Group Label": "inactive"
  }
]
